Each entry below carries its reported pIC50.
tested.target: Steroid 17-alpha-hydroxylase/17,20 lyase (Rattus norvegicus, UniProt P11715)
Sequence (P11715 whole entry): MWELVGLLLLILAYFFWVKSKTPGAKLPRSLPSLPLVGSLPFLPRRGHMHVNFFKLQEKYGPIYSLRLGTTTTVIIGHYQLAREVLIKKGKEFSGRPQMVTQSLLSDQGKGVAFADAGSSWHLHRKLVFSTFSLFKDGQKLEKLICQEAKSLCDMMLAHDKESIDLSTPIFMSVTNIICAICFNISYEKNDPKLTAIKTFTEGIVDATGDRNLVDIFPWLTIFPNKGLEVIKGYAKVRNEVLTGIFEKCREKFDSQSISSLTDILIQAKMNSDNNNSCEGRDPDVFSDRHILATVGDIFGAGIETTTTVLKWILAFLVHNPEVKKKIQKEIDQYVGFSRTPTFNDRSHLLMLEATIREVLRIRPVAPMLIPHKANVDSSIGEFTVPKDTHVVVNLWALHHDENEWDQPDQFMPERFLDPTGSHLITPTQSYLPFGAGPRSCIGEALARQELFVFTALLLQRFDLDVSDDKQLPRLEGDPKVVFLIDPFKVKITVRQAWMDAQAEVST
pIC50: −log10 of the molar value.

molecule	pIC50
C[C@@H]1C(OC(=O)Cc2ccncc2)CC2CC1C2(C)C (stereo partly drawn)	6.55
C[C@@H]1C(OC(=O)C(C)(C)c2cccnc2)CC2CC1C2(C)C (stereo partly drawn)	7.28
C[C@@H]1C(OC(=O)Cc2cccnc2)CC2CC1C2(C)C (stereo partly drawn)	6.28

* * *

Listing: IC50 of selected compounds
tested.target: Steroid 17-alpha-hydroxylase/17,20 lyase (Homo sapiens)
attribute.measured: IC50 (nM)

compound	uom	modifier	val
C[C@@H]1C(OC(=O)Cc2ccccn2)CC2CC1C2(C)C (stereo partly specified)	nM	>	1000
CC(C(=O)OC12CC3CC(CC(C3)C1)C2)c1cccnc1 (stereo unspecified)	nM	=	220
C[C@@H]1CCC2C(C)(C)C3CC21CC[C@@]3(C)OC(=O)Cc1ccncc1 (stereo partly specified)	nM	=	270
C[C@@H]1C(OC(=O)Cc2ccncc2)CC2CC1C2(C)C (stereo partly specified)	nM	=	14
CC(C)(C(=O)OC1(C)C2CC3CC(C2)CC1C3)c1cccnc1 (stereo unspecified)	nM	=	75
O=C(Cc1cccnc1)OC12CC3CC(CC(C3)C1)C2	nM	=	930

* * *

tested.target: Steroid 17-alpha-hydroxylase/17,20 lyase (Homo sapiens, UniProt P05093)
Sequence (P05093 whole entry): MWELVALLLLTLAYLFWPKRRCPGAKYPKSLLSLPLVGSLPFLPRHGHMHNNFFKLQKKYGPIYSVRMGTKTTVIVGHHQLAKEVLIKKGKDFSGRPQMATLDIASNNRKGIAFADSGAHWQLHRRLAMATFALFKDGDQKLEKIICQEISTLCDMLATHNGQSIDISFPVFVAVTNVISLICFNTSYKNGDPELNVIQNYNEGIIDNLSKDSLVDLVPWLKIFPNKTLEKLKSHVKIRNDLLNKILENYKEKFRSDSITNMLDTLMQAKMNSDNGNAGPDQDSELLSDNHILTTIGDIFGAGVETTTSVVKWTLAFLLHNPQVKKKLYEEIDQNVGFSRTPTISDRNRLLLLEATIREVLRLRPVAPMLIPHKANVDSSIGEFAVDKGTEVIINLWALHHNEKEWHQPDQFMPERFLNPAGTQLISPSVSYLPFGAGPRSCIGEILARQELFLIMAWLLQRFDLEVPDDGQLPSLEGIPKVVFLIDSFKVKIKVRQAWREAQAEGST
Binning of IC50 into classes: low interval = under 30 nM, middle interval = from 30 nM up to 200 nM, high interval = 200 nM and over

compound	tested.target	assigned.class
C[C@@H]1CCC2C(C)(C)C3CC21CC[C@@]3(C)OC(=O)Cc1cccnc1 (stereo partly specified)	Steroid 17-alpha-hydroxylase/17,20 lyase (Homo sapiens, UniProt P05093)	high interval
C[C@@H]1C(OC(=O)C(C)(C)c2ccncc2)CC2CC1C2(C)C (stereo partly specified)	Steroid 17-alpha-hydroxylase/17,20 lyase (Homo sapiens, UniProt P05093)	low interval
C[C@@H]1C(OC(=O)Cc2cccnc2)CC2CC1C2(C)C (stereo partly specified)	Steroid 17-alpha-hydroxylase/17,20 lyase (Homo sapiens, UniProt P05093)	high interval
CC1(OC(=O)Cc2cccnc2)C2CC3CC(C2)CC1C3 (stereo unspecified)	Steroid 17-alpha-hydroxylase/17,20 lyase (Homo sapiens, UniProt P05093)	high interval
CCC(C(=O)OC1CC2CC([C@@H]1C)C2(C)C)c1ccncc1 (stereo partly specified)	Steroid 17-alpha-hydroxylase/17,20 lyase (Homo sapiens, UniProt P05093)	middle interval
C[C@@H]1CCC2C(C)(C)C3CC21CC[C@@]3(C)OC(=O)C(C)(C)c1cccnc1 (stereo partly specified)	Steroid 17-alpha-hydroxylase/17,20 lyase (Homo sapiens, UniProt P05093)	high interval
CC(C)(C(=O)OC12CC3CC(CC(C3)C1)C2)c1cccnc1	Steroid 17-alpha-hydroxylase/17,20 lyase (Homo sapiens, UniProt P05093)	middle interval
C[C@@H]1C(OC(=O)C(C)(C)c2cccnc2)CC2CC1C2(C)C (stereo partly specified)	Steroid 17-alpha-hydroxylase/17,20 lyase (Homo sapiens, UniProt P05093)	low interval
CCC(CC)(C(=O)OC1CC2CC([C@@H]1C)C2(C)C)c1ccncc1 (stereo partly specified)	Steroid 17-alpha-hydroxylase/17,20 lyase (Homo sapiens, UniProt P05093)	middle interval
CC(C(=O)OC1CC2CC([C@@H]1C)C2(C)C)c1ccncc1 (stereo partly specified)	Steroid 17-alpha-hydroxylase/17,20 lyase (Homo sapiens, UniProt P05093)	low interval
CC(C(=O)OC1CC2CC([C@@H]1C)C2(C)C)c1cccnc1 (stereo partly specified)	Steroid 17-alpha-hydroxylase/17,20 lyase (Homo sapiens, UniProt P05093)	middle interval

* * *

pIC50: −log10 of the molar value.
Observed pIC50 for Steroid 17-alpha-hydroxylase/17,20 lyase (Homo sapiens, UniProt P05093), reported per entry below.

compound	modifier	pIC50
C[C@@H]1C(OC(=O)C(C)(C)c2ccncc2)CC2CC1C2(C)C (stereo partly specified)	=	8.00
C[C@@H]1C(OC(=O)C(C)(C)c2cccnc2)CC2CC1C2(C)C (stereo partly specified)	=	7.82
C[C@@H]1CCC2C(C)(C)C3CC21CC[C@@]3(C)OC(=O)C(C)(C)c1cccnc1 (stereo partly specified)	=	6.17
CC1(OC(=O)Cc2cccnc2)C2CC3CC(C2)CC1C3 (stereo unspecified)	=	6.49
CCC(C(=O)OC1CC2CC([C@@H]1C)C2(C)C)c1ccncc1 (stereo partly specified)	=	8.05
C[C@@H]1C(OC(=O)Cc2ccccn2)CC2CC1C2(C)C (stereo partly specified)	<	6.00
CC(C(=O)OC1CC2CC([C@@H]1C)C2(C)C)c1cccnc1 (stereo partly specified)	=	7.85
CC(C)(C(=O)OC1(C)C2CC3CC(C2)CC1C3)c1cccnc1 (stereo unspecified)	=	7.89
C[C@@H]1CCC2C(C)(C)C3CC21CC[C@@]3(C)OC(=O)Cc1cccnc1 (stereo partly specified)	=	7.42
C[C@@H]1C(OC(=O)Cc2ccncc2)CC2CC1C2(C)C (stereo partly specified)	=	8.30
C[C@@H]1CCC2C(C)(C)C3CC21CC[C@@]3(C)OC(=O)Cc1ccncc1 (stereo partly specified)	=	7.28

* * *

Listed here: items and their measured half-life.
Test system: esterase
assay.procedure: in vitro
condition.description: rat, in vivo
Description: Hydrolysis rate by rat liver microsomal esterase

compound	half-life [min]
CC(C(=O)OC1CC2CC([C@@H]1C)C2(C)C)c1cccnc1 (stereo not given in full)	50
CCC(C(=O)OC1CC2CC([C@@H]1C)C2(C)C)c1ccncc1 (stereo not given in full)	88
C[C@@H]1C(OC(=O)Cc2cccnc2)CC2CC1C2(C)C (stereo not given in full)	16
CC(C(=O)OC1CC2CC([C@@H]1C)C2(C)C)c1ccncc1 (stereo not given in full)	100
C[C@@H]1C(OC(=O)Cc2ccncc2)CC2CC1C2(C)C (stereo not given in full)	17.5

* * *

pIC50: −log10 of the molar value.
Reported pIC50 for target or system Steroid 17-alpha-hydroxylase/17,20 lyase (Homo sapiens, UniProt P05093), by entry.

molecule	pIC50
O=C(Cc1cccnc1)OC12CC3CC(CC(C3)C1)C2	6.89
CC(C(=O)OC1CC2CC([C@@H]1C)C2(C)C)c1ccncc1 (stereo partly specified)	8.22
C[C@@H]1C(OC(=O)Cc2cccnc2)CC2CC1C2(C)C (stereo partly specified)	7.06
CC(C)(C(=O)OC12CC3CC(CC(C3)C1)C2)c1cccnc1	7.89
CC(C(=O)OC12CC3CC(CC(C3)C1)C2)c1cccnc1 (stereo unspecified)	7.46
CCC(CC)(C(=O)OC1CC2CC([C@@H]1C)C2(C)C)c1ccncc1 (stereo partly specified)	7.46
